test: Ex vivo brain penetration in mice (GC and binding); conditions: mouse, in vivo, iv, T1/2, first phase, mice brain
measure: half-life (min)
Only the number, expressed in min, is required.

Req: Need half-life, item CC1=NCC2(CCN(C)CC2)S1 [AF150(S)]
Resp: 21

* * *

test: Caco-2 cell permeability; format: in vitro ADME, human; conditions: human, Caco-2; bi-directional assay; read-out: average permeability coefficient (Papp)
measure: Papp
Your answer should be a number followed by the unit of measure.

Req: Need Papp, item CC[C@@H]1SC2(CCNCC2)NC1=O
Resp: 17.4 ×10⁻⁶ cm/s

* * *

test: Pharmacokinetic study in dogs; assay type: in vivo; conditions: beagle, dog, plasma, po; Dogs, 5 mg/kg
measure: half-life (h)
Only the number, expressed in h, is required.

Req: Need half-life, item CC[C@@H]1SC2(CCNCC2)NC1=O
Resp: 2.04
